test: physchem; settings: 37 °C, pH 6.8, fassgf or other biorelevant, thermodynamic from solid, Solubility JP2 (pH 6.8), 20 hr
Provide the recorded solubility for the entries that follow.
Kindly format the answer as number then unit.

Problem: Looking for the measured solubility of CN(C)c1cc(F)c(F)cc1CN1C[C@H]2N(C(=O)CN(C)N2C(=O)NCc2ccccc2)[C@@H](Cc2ccc(OP(=O)([O-])[O-])cc2)C1=O.[Na+].[Na+] , can you help?
Solution: 2030 µg/mL

Problem: solubility for CN1CC(=O)N2[C@@H](Cc3ccc(OP(=O)([O-])[O-])cc3)C(=O)N(Cc3cccc4cccnc34)C[C@@H]2N1C(=O)NCc1ccccc1.[Na+].[Na+] ?
Solution: 2420 µg/mL

Problem: So what does the record say about solubility for C=CCN1CC(=O)N2[C@@H](Cc3ccc(OP(=O)([O-])[O-])cc3)C(=O)N(Cc3ccc(Cl)c4cccnc34)C[C@@H]2N1C(=O)NCc1ccccc1.[Na+].[Na+] ?
Solution: 2240 µg/mL

Problem: Which solubility is reported for this molecule? CN(C)c1cc(CN2C[C@H]3N(C(=O)CN(C)N3C(=O)NCc3ccccc3)[C@@H](Cc3ccc(OP(=O)([O-])[O-])cc3)C2=O)ccc1Cl.[Na+].[Na+]
Solution: 1650 µg/mL

Problem: What solubility value was documented for this molecule, C=CCN1CC(=O)N2[C@@H](Cc3ccc(OP(=O)([O-])[O-])cc3)C(=O)N(Cc3cccc4cccnc34)C[C@@H]2N1C(=O)NCc1ccccc1.[Na+].[Na+] ?
Solution: 1870 µg/mL

----------
experiment: physchem; conditions: 37 °C, pH 1.2, simulated gastric fluid, thermodynamic from solid, Solubility JP1 (pH 1.2), 0 hr
MEASURED ATTRIBUTE: solubility (µg/mL)
Express your answer in µg/mL, writing the number without its unit.

Problem: Give its solubility value. Item: CN(C)c1cc(CN2C[C@H]3N(C(=O)CN(C)N3C(=O)NCc3ccccc3)[C@@H](Cc3ccc(OP(=O)([O-])[O-])cc3)C2=O)ccc1Cl.[Na+].[Na+]
Solution: 2010

Problem: Returns the measured solubility for the input compound. Input: CN1CC(=O)N2[C@@H](Cc3ccc(OP(=O)(O)O)cc3)C(=O)N(Cc3cccc4cnn(C)c34)C[C@@H]2N1C(=O)NCc1ccccc1
Solution: 406

Problem: # input compound: C=CCN1CC(=O)N2[C@@H](Cc3ccc(OP(=O)([O-])[O-])cc3)C(=O)N(Cc3ccc(Cl)c4cccnc34)C[C@@H]2N1C(=O)NCc1ccccc1.[Na+].[Na+] ; wanted: its solubility
Solution: 309

Problem: Entry CN1CC(=O)N2[C@@H](Cc3ccc(OP(=O)([O-])[O-])cc3)C(=O)N(Cc3ccc(F)cc3F)C[C@@H]2N1C(=O)NCc1ccccc1.[Na+].[Na+] has what solubility?
Solution: 554

Problem: Can you look up the measured solubility of C=CCN1CC(=O)N2[C@@H](Cc3ccc(OP(=O)([O-])[O-])cc3)C(=O)N(Cc3cccc4cccnc34)C[C@@H]2N1C(=O)NCc1ccccc1.[Na+].[Na+] for me?
Solution: 1450

Problem: Sample C=CCN1CC(=O)N2[C@@H](Cc3ccc(OP(=O)([O-])[O-])cc3)C(=O)N(Cc3ccc(F)cc3F)C[C@@H]2N1C(=O)NCc1ccccc1.[Na+].[Na+] — what was its solubility?
Solution: 671

Problem: So what's the measured solubility for this one? CN(C)c1cc(F)c(F)cc1CN1C[C@H]2N(C(=O)CN(C)N2C(=O)NCc2ccccc2)[C@@H](Cc2ccc(OP(=O)([O-])[O-])cc2)C1=O.[Na+].[Na+]
Solution: 2290

Problem: Consider the compound shown here: CN(C)c1cc(F)ccc1CN1C[C@H]2N(C(=O)CN(C)N2C(=O)NCc2ccccc2)[C@@H](Cc2ccc(OP(=O)(O)O)cc2)C1=O What is its recorded solubility?
Solution: 1880

Problem: # input compound: CN1CC(=O)N2[C@@H](Cc3ccc(OP(=O)([O-])[O-])cc3)C(=O)N(Cc3cccc4cccnc34)C[C@@H]2N1C(=O)NCc1ccccc1.[Na+].[Na+] ; wanted: its solubility
Solution: 2250

----------
test: physchem; settings: 37 °C, pH 1.2, simulated gastric fluid, thermodynamic from solid, Solubility JP1 (pH 1.2), 2 hr
For each of the compounds below, state its solubility.
Write down the numeric answer in µg/mL and omit the unit.

Problem: Using the record for CN1CC(=O)N2[C@@H](Cc3ccc(OP(=O)([O-])[O-])cc3)C(=O)N(Cc3cccc4cccnc34)C[C@@H]2N1C(=O)NCc1ccccc1.[Na+].[Na+] , report its solubility.
Solution: 2280

Problem: For CN(C)c1cc(F)c(F)cc1CN1C[C@H]2N(C(=O)CN(C)N2C(=O)NCc2ccccc2)[C@@H](Cc2ccc(OP(=O)([O-])[O-])cc2)C1=O.[Na+].[Na+] , what is its reported solubility?
Solution: 2270

Problem: For the compound C=CCN1CC(=O)N2[C@@H](Cc3ccc(OP(=O)([O-])[O-])cc3)C(=O)N(Cc3ccc(F)cc3F)C[C@@H]2N1C(=O)NCc1ccccc1.[Na+].[Na+] , what solubility is on record?
Solution: 775

----------
Answer each item with its documented GI50.
system: HCT116 cells; experiment: Growth inhibition assay (MTS or sulforhodamine B), HCT116; assay type: cell-based; details: Homo sapiens, HCT-116, 48 h, Table 5, MTS or sulforhodamine B assay, HCT116, 48 hours
The response must be a number in µM with no trailing unit.

Problem: Form field: reported GI50 of C=CCN1CC(=O)N2[C@@H](Cc3ccc(O)cc3)C(=O)N(Cc3ccc(F)cc3F)[C@@H](C)[C@@H]2N1C(=O)NCc1ccccc1 [Compound 147]
Solution: 5.5

Problem: Which GI50 is listed for CN1CC(=O)N2[C@@H](Cc3ccc(O)cc3)CN(Cc3ccc(F)cc3F)C[C@@H]2N1C(=O)NCc1ccccc1 [Compound 77] ?
Solution: 10.7

Problem: What GI50 value was documented for this compound, CN1CC(=O)N2[C@@H](Cc3ccc(O)cc3)C(=O)N(Cc3cccc4c3cnn4CCN3CCOCC3)C[C@@H]2N1C(=O)NCc1ccccc1 [Compound 73] ?
Solution: 15.8

Problem: For the compound C=CCN1CC(=O)N2[C@@H](Cc3ccc(O)cc3)C(=O)N(Cc3ccc(F)cc3F)C[C@@H]2N1C(=O)NCc1ccccc1 [Compound 115] , what GI50 is on record?
Solution: 1.1

Problem: Look at this compound and give its reported GI50. CN1CC(=O)N2[C@@H](Cc3ccc(O)cc3)C(=O)N(Cc3ccc(F)cc3F)C[C@@H]2N1C(=O)NCc1ccccc1 [Compound 13]
Solution: 1.59

Problem: Tell me the measured GI50 of CN1CC(=O)N2[C@@H](Cc3ccc(O)cc3)C(=O)N(Cc3cccc4ccccc34)C[C@@H]2N1C(=O)NCc1ccccc1 [Compound 1] , please.
Solution: 1.78

----------
assay: physchem; conditions: 37 °C, pH 6.8, fassgf or other biorelevant, thermodynamic from solid, Solubility JP2 (pH 6.8), 2 hr
Field: solubility. Provide a value for each of the compounds that follow.
Kindly answer with a numeric value in mg/mL, unit omitted.

Problem: # lookup: solubility of CN(C)c1cc(F)ccc1CN1C[C@H]2N(C(=O)CN(C)N2C(=O)NCc2ccccc2)[C@@H](Cc2ccc(OP(=O)(O)O)cc2)C1=O
Solution: 1.9

Problem: Requested read-out: solubility. Entry: C=CCN1CC(=O)N2[C@@H](Cc3ccc(OP(=O)([O-])[O-])cc3)C(=O)N(Cc3ccc(F)cc3F)C[C@@H]2N1C(=O)NCc1ccccc1.[Na+].[Na+]
Solution: 2.32

Problem: Requested read-out: solubility. Entry: C=CCN1CC(=O)N2[C@@H](Cc3ccc(OP(=O)([O-])[O-])cc3)C(=O)N(Cc3ccc(Cl)c4cccnc34)C[C@@H]2N1C(=O)NCc1ccccc1.[Na+].[Na+]
Solution: 2.22

Problem: For the compound CN(C)c1cc(F)c(F)cc1CN1C[C@H]2N(C(=O)CN(C)N2C(=O)NCc2ccccc2)[C@@H](Cc2ccc(OP(=O)([O-])[O-])cc2)C1=O.[Na+].[Na+] , what solubility is on record?
Solution: 2.06

Problem: Report solubility for CN1CC(=O)N2[C@@H](Cc3ccc(OP(=O)(O)O)cc3)C(=O)N(Cc3cccc4cnn(C)c34)C[C@@H]2N1C(=O)NCc1ccccc1 please.
Solution: 1.78

Problem: What measured solubility goes with CN1CC(=O)N2[C@@H](Cc3ccc(OP(=O)([O-])[O-])cc3)C(=O)N(Cc3ccc(F)cc3F)C[C@@H]2N1C(=O)NCc1ccccc1.[Na+].[Na+] ?
Solution: 2.01

Problem: // returns reported solubility for input C=CCN1CC(=O)N2[C@@H](Cc3ccc(OP(=O)([O-])[O-])cc3)C(=O)N(Cc3cccc4cccnc34)C[C@@H]2N1C(=O)NCc1ccccc1.[Na+].[Na+]
Solution: 1.86

Problem: GET /values?readout=solubility&item= CN1CC(=O)N2[C@@H](Cc3ccc(OP(=O)([O-])[O-])cc3)C(=O)N(Cc3cccc4cccnc34)C[C@@H]2N1C(=O)NCc1ccccc1.[Na+].[Na+]
Solution: 2.35

Problem: Requested field: solubility. Item: CN(C)c1cc(CN2C[C@H]3N(C(=O)CN(C)N3C(=O)NCc3ccccc3)[C@@H](Cc3ccc(OP(=O)([O-])[O-])cc3)C2=O)ccc1Cl.[Na+].[Na+]
Solution: 1.65
